// provenance: patent US11530222B2

Below is a list of entries, each paired with its recorded DC50 value.
Target: BTK (Homo sapiens, UniProt Q06187)
Construct: BTK Degradative Activity of Exemplary Compounds of the Present Disclosure in a RAMOS Cell Line; host or cells: RAMOS
Sequence (Q06187 whole entry): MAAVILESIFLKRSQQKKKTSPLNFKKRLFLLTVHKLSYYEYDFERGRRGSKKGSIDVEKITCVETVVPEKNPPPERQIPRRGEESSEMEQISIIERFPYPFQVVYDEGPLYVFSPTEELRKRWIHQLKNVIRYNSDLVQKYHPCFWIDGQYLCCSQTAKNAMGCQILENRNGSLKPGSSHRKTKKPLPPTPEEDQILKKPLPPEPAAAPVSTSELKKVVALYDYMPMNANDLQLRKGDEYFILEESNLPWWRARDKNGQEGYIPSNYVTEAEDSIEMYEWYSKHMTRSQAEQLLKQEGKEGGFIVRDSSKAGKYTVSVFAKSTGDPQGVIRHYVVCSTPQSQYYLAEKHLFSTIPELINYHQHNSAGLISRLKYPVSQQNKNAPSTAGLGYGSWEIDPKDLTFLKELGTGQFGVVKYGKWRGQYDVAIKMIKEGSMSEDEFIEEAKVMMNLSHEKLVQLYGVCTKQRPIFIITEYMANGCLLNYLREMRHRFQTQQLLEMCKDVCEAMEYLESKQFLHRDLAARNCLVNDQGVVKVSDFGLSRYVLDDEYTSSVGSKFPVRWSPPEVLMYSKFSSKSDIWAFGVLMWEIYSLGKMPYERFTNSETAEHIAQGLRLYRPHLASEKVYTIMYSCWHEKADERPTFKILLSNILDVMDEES
Assay: BTK degradative activity in a RAMOS cell line (Western blot)
Format: cell-based
Details: 6 hours after administration, read-out: RAMOS BTK Degradation DC50
Procedure: RAMOS (ATCC) cells were plated in 24-well plates at 8×10^5 cells/well in the RPMI growth medium containing 10% heat-inactivated FBS and 1× Penicillin Streptomycin, and then incubated at 37° C. overnight. […] Upon completion, the cells were collected by centrifugation and lysed in Laemmli sample buffer (1×; VWR International). […] The bands were quantified using Image Studio™ Software (Licor). […]

Worked cases, DC50 given:
COc1ccc(C(=O)N2CCCN(Cc3ccc(C(=O)N4CCC(Nc5ncnc6[nH]cc(C(=O)c7ccc(Oc8ccccc8)cc7Cl)c56)CC4)cc3)CC2)cc1N1CCC(=O)NC1=O [Compound 79] : ≥ 100 nM
O=C1CC[C@H](N2Cc3cc(N4CCN(CC5CCN(c6ccc(Nc7ncnc8[nH]cc(C(=O)c9ccc(Oc%10ccccc%10)cc9Cl)c78)cc6F)CC5)CC4)ccc3C2=O)C(=O)N1 [Compound 46] : ≥ 100 nM
O=C1CCC(N2C(=O)c3ccc(N4CCN(C5CC(CC(=O)N6CCC[C@@H](Nc7ncnc8[nH]cc(C(=O)c9ccc(Oc%10ccccc%10)cc9Cl)c78)C6)C5)CC4)cc3C2=O)C(=O)N1 (stereo partly drawn) [Compound 43] : < 10 nM
O=C1CCC(N2C(=O)c3ccc(N4CCN(c5ccc(C(=O)N6CCC[C@@H](Nc7ncnc8[nH]cc(C(=O)c9ccc(Oc%10ccccc%10)cc9Cl)c78)C6)cn5)CC4)cc3C2=O)C(=O)N1 (stereo partly drawn) [Compound 2] : ≥ 100 nM
O=C1CCC(N2C(=O)c3ccc(N4CCN(CCCC(=O)N5CCC[C@@H](Nc6ncnc7[nH]cc(C(=O)c8ccc(Oc9ccccc9)cc8Cl)c67)C5)CC4)cc3C2=O)C(=O)N1 (stereo partly drawn) [Compound 19] : 10 to 100 nM

Reported DC50 for O=C1CC[C@H](N2Cc3cc(N4CCN(CC5CCN(C(=O)N6CCC[C@@H](Nc7ncnc8[nH]cc(C(=O)c9ccc(Oc%10ccccc%10)cc9Cl)c78)C6)CC5)CC4)ccc3C2=O)C(=O)N1 [Compound 32] was 10 to 100 nM

Reported DC50 for COc1ccc(F)cc1C(=O)NCc1ccc(-c2nn(C3CCN(C(=O)CCCCCN4CCN(c5ccc6c(c5)CN([C@H]5CCC(=O)NC5=O)C6=O)CC4)C3)c3ncnc(N)c23)cc1 (stereo partly drawn) [Compound 64] was < 10 nM

Reported DC50 for COc1ccc(F)cc1C(=O)NCc1ccc(-c2nn(C3CCN(c4ccc(CN5CCN(c6ccc7c(c6)CN([C@H]6CCC(=O)NC6=O)C7=O)CC5)cn4)C3)c3ncnc(N)c23)cc1 (stereo partly drawn) [Compound 92] was < 10 nM

Reported DC50 for O=C1CCC(N2C(=O)c3ccc(N4CCN(CCCCCCN5CCC[C@@H](Nc6ncnc7[nH]cc(C(=O)c8ccc(Oc9ccccc9)cc8Cl)c67)C5)CC4)cc3C2=O)C(=O)N1 (stereo partly drawn) [Compound 15] was ≥ 100 nM
